Subject of test: MC1-R (Mus musculus, UniProt Q01727)
Construct: MC1-R membranes were isolated from B16—F10 mouse melanoma cells; endogenous in cells; host or cells: B16-F10 mouse melanoma cells
Sequence (Q01727 whole entry): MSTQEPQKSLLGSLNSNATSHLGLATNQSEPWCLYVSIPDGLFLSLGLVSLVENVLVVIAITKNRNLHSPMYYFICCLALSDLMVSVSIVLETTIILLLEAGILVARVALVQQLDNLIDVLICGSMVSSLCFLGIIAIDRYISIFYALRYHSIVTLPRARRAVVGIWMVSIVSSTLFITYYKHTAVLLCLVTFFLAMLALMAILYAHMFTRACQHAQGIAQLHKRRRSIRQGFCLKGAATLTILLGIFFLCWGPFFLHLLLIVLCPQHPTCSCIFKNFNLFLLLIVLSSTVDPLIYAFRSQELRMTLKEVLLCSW
Experiment description: Competitive binding assay: inhibition of 125I-NDP-α-MSH binding to membranes from B16-F10 mouse melanoma cells
Run parameters: Table 6; 1 μM; mean of triplicate
Description: Rhenium-complexed metallopeptides of the formulas given in Table 1 were prepared, with the metallopeptides complexed with rhenium using the rhenium transfer agent ReOCl3(PPh3)2 in the presence of 1,8-Diazabicyclo[5,4,0] undec-7-ene as a base, as disclosed in International Application PCT/US00/16396, filed Jun. […] Affinities of compounds were measured using membranes from HEK-293 cells containing cloned human melanocortin receptor subtypes 3, 4 and 5. […]
Non-standard residues stand in square brackets, D forms with d. No end group written: not given here. Tic = O=C(O)[C@@H]1Cc2ccccc2CN1
// % Inhibition of Binding MC1-R lookup, one value per entry
State just the number; it will be interpreted in %.

Check out these entries, answers already filled in.
Substance: Tic-D-Phe-Arg-Trp-Cys-NH2 ([Tic][dF]RWC-NH2; also: metal complex)
Result units: %
% Inhibition of Binding MC1-R: 14
--
Substance: Idc-D-Phe-Arg-Cys-Trp-NH2
Result units: %
% Inhibition of Binding MC1-R: 0

Shift focus to the following entry.
# input Request the reported % Inhibition of Binding MC1-R associated with Ac-Nle-Ala-His-D-Phe-Arg-D-Nal 1′-Cys-NH2
# output 93

----------
Subject of test: hMC5-R (Homo sapiens, UniProt P33032)
Construct: expressed in transfected cells; host or cells: HEK-293
Sequence (P33032 whole entry): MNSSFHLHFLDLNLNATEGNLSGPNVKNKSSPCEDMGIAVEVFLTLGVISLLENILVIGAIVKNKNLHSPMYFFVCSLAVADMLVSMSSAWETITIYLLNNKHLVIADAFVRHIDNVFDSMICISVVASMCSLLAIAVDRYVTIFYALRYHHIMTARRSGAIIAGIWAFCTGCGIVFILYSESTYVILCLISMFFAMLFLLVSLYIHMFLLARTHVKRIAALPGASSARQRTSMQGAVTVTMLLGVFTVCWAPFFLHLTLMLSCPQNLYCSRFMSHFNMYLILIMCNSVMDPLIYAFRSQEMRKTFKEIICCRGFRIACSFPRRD
Experiment description: Competitive binding assay: inhibition of 125I-NDP-α-MSH binding to HEK-293 membranes with cloned human receptor subtype 5
Run parameters: Table 6; 1 μM; mean of triplicate
Method: Rhenium-complexed metallopeptides of the formulas given in Table 1 were prepared, with the metallopeptides complexed with rhenium using the rhenium transfer agent ReOCl3(PPh3)2 in the presence of 1,8-Diazabicyclo[5,4,0] undec-7-ene as a base, as disclosed in International Application PCT/US00/16396, filed Jun. […] Affinities of compounds were measured using membranes from HEK-293 cells containing cloned human melanocortin receptor subtypes 3, 4 and 5. […]
Non-standard residues stand in square brackets, D forms with d. No end group written: not given here. 1Nal = N[C@@H](Cc1cccc2ccccc12)C(=O)O
// % Inhibition of Binding hMC5-R lookup, one value per entry
State just the number; it will be interpreted in %.

Check out these entries, answers already filled in.
Substance: Idc-D-Phe-Arg-Cys-Trp-NH2
Subject of test: hMC5-R (Homo sapiens, UniProt P33032)
Result units: %
% Inhibition of Binding hMC5-R: 19

Substance: Nal 1′-D-Phe-Arg-Cys-Trp-NH2 ([1Nal][dF]RCW-NH2; also: metal complex)
Subject of test: hMC5-R (Homo sapiens, UniProt P33032)
Result units: %
% Inhibition of Binding hMC5-R: 45

Substance: Pro-D-Phe-Arg-Trp-Cys-NH2 (P[dF]RWC-NH2; also: metal complex)
Subject of test: hMC5-R (Homo sapiens, UniProt P33032)
Result units: %
% Inhibition of Binding hMC5-R: 0

Shift focus to the following entry.
# input Request the reported % Inhibition of Binding hMC5-R associated with D-Nal 2′-D-Phe-Arg-Cys-Trp-NH2
# output 52

----------
// % Inhibition of Binding MC1-R lookup, one value per entry
Subject of test: MC1-R (Mus musculus, UniProt Q01727)
Construct: MC1-R membranes were isolated from B16—F10 mouse melanoma cells; endogenous in cells; host or cells: B16-F10 mouse melanoma cells
Experiment description: Competitive binding assay: inhibition of 125I-NDP-α-MSH binding to membranes from B16-F10 mouse melanoma cells
Run parameters: Table 6; 1 μM; mean of triplicate
Non-standard residues stand in square brackets, D forms with d. No end group written: not given here. *: point of attachment. Tiq = 1,2,3,4-tetrahydroisoquinoline-1-carboxylic acid; Desaminotyrosyl = O=C(CCc1ccc(O)cc1)*; Hydrocinnamoyl = O=C(CCc1ccccc1)*; d(pGlu) = O=C1CC[C@H](C(=O)O)N1; code Z = not defined here; Ac6c = NC1(C(=O)O)CCCCC1; Ac5c = NC1(C(=O)O)CCCC1
State just the number; it will be interpreted in %.

Check out these entries, answers already filled in.
Substance: NH2(CH2)6CO-Ser(Bzl)-D-Nal 2′-Arg-Trp-Cys-NH2
Result units: %
% Inhibition of Binding MC1-R: 14
--
Substance: Tiq-D-Phe-Arg-Cys-Trp-NH2 (Tiq-[dF]RCW-NH2; also: metal complex)
Result units: %
% Inhibition of Binding MC1-R: 53
--
Substance: NH2-(CH2)6-CO-Ser(Bzl)-D-Phe(4′-Cl)-Arg-Trp-Cys-NH2
Result units: %
% Inhibition of Binding MC1-R: 74
--
Substance: 3′-Br Phenyl acetyl-Arg-Arg-D-Bip-Cys-Trp-NH2
Result units: %
% Inhibition of Binding MC1-R: 91

# input Request the reported % Inhibition of Binding MC1-R associated with `Aic-D-Phe-Arg-Cys-Trp-NH2`
# output 59

# input Similarly, Z-D-Pyr-D-Phe-Arg-Trp-Cys-NH2 ({code Z}-[d(pGlu)][dF]RWC-NH2; reading uncertain; also: metal complex, printed as Z-D-Pyr-D-Phe-Arg-Trp-Cys-NH2) ?
# output 44

# input Similarly, 1-amino-1-cyclohexane carboxyl-D-Phe-Arg-Trp-Cys-NH2 ([Ac6c][dF]RWC-NH2; N-terminus assumed; SMILES N=C(N)NCCC[C@H](NC(=O)[C@@H](Cc1ccccc1)NC(=O)C1(N)CCCCC1)C(=O)N[C@@H](Cc1c[nH]c2ccccc12)C(=O)N[C@@H](CS)C(N)=O) ?
# output 11

# input Similarly, Ac-Ala-Ala-His-D-Phe-Arg-Cys-Trp-NH2 ({Ac-Ala-Ala-H2N}-[dF]RCW-NH2; not fully specified; printed as Ac-Ala-Ala-His-D-Phe-Arg-Cys-Trp-NH2) ?
# output 76

# input Similarly, Pro-D-Phe-Arg-Trp-Cys-NH2 (P[dF]RWC-NH2; also: metal complex) ?
# output 39

# input Similarly, Ac-Leu-His-D-Phe-Arg-Cys-Trp-NH2 ({Ac-Leu-H2N}-[dF]RCW-NH2; not fully specified; printed as Ac-Leu-His-D-Phe-Arg-Cys-Trp-NH2) ?
# output 75

# input Similarly, 3′-(4′-Hydroxyphenyl)propionyl-HiS-D-Phe-Arg-Cys-Trp-NH2 (Desaminotyrosyl-H[dF]RCW-NH2; not fully specified; printed as 3′-(4′-Hydroxyphenyl)propionyl-HiS-D-Phe-Arg-Cys-Trp-NH2) ?
# output 76

# input Similarly, Tiq-D-Phe-Arg-Trp-Cys-NH2 (Tiq-[dF]RWC-NH2; also: metal complex) ?
# output 7

# input Similarly, 3′-(4′-Hydroxyphenyl)propionyl-D-Phe-Arg-Cys-Trp-NH2 (Desaminotyrosyl-[dF]RCW-NH2; not fully specified; printed as 3′-(4′-Hydroxyphenyl)propionyl-D-Phe-Arg-Cys-Trp-NH2) ?
# output 7

# input Similarly, 1-amino-1-cyclopentane carboxyl-D-Phe-Arg-Cys-Trp-NH2 ([Ac5c][dF]RCW-NH2; N-terminus assumed; SMILES N=C(N)NCCC[C@H](NC(=O)[C@@H](Cc1ccccc1)NC(=O)C1(N)CCCC1)C(=O)N[C@@H](CS)C(=O)N[C@@H](Cc1c[nH]c2ccccc12)C(N)=O) ?
# output 78

# input Similarly, Heptanoyl-Ser(Bzl)-D-Nal 2′-Gly-Trp-Cys-Lys-NH2 ?
# output 27

# input Similarly, D-Nal 1′-D-Phe-Arg-Cys-Trp-NH2 ?
# output 22

# input Similarly, 3′-Phenylpropionyl-D-Phe-Arg-Cys-Trp-NH2 (Hydrocinnamoyl-[dF]RCW-NH2; not fully specified; printed as 3′-Phenylpropionyl-D-Phe-Arg-Cys-Trp-NH2) ?
# output 3

# input Similarly, `Aic-D-Phe-Arg-Trp-Cys-NH2` ?
# output 9

----------
Subject of test: MC4-R (Homo sapiens, UniProt P32245)
Construct: expressed in transfected cells; host or cells: HEK-293
Sequence (P32245 whole entry): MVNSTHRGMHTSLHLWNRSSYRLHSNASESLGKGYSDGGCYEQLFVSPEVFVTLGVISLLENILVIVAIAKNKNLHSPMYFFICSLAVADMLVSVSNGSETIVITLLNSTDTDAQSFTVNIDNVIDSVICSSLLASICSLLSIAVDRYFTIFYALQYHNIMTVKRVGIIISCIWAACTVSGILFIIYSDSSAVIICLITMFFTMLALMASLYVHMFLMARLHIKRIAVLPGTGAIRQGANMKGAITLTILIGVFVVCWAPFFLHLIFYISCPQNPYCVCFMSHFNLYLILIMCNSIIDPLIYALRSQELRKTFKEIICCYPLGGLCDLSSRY
Experiment description: Competitive binding assay: inhibition of 125I-NDP-α-MSH binding to HEK-293 membranes with cloned human receptor subtype 4
Run parameters: Table 6; 0.1 μM; mean of triplicate
// % Inhibition of Binding hMC4-R lookup, one value per entry
Don't forget the unit after the value.

Substance: NH2-(CH2)6-CO-Ser(Bzl)-D-Phe(4′-Cl)-Arg-Trp-Cys-NH2
% Inhibition of Binding hMC4-R: 68%

Substance: Heptanoyl-Ser(Bzl)-D-Phe(4′-Br)-Arg-Trp-Cys-NH2
% Inhibition of Binding hMC4-R: 90%

# input Request the reported % Inhibition of Binding hMC4-R associated with `Heptanoyl-Hphe-D-Phe(4′-Cl)-Arg-Trp-Cys-NH2`
# output 80%
